method description: Solvent stability: strontium distribution ratios as a function of contact time with 1.5 M HNO3
Assay type: physicochemical
condition details: contact time 70 days with 1.5 M HNO3
measured endpoint: Strontium distribution ratio as a function of contact time

Task: Look up Strontium distribution ratio as a function of contact time: CCCCCCCCCCOc1c2cccc1Cc1cccc3c1OCCOCCOc1ccccc1OCCOCCOc1c(cccc1Cc1cccc(c1OCCCCCCCCCC)C3)C2
Result: 9.0

Task: Lookup CCCCCCCCOc1c2cccc1Cc1cccc3c1OCCOCCOc1ccccc1OCCOCCOc1c(cccc1Cc1cccc(c1OCCCCCCCC)C3)C2
Result: 9.3

Task: Lookup CC(C)CCCC(C)CCOc1c2cccc1Cc1cccc3c1OCCOCCOc1ccccc1OCCOCCOc1c(cccc1Cc1cccc(c1OCCC(C)CCCC(C)C)C3)C2 (stereo not shown) [MC-10B]
Result: 9.5

Task: Lookup CCCCC(CC)COc1c2cccc1Cc1cccc3c1OCCOCCOc1ccccc1OCCOCCOc1c(cccc1Cc1cccc(c1OC[C@H](CC)CCCC)C3)C2 (stereo partly shown)
Result: 9.3

###

method description: Solvent stability: cesium distribution ratios as a function of contact time with 1.5 M HNO3
Format: physicochemical
condition details: contact time 0 days with 1.5 M HNO3; 0.007 M calixarene, 0.075 M DtBuCH18C6, 0.75 M Cs-7SB, 0.003 M TOA in ISOPAR L
Experimental: The stability of the mixed extractant solvents prepared using dialkyloxycalix[4]arenebenzocrown-6 compounds (MC-8, MC-8B, MC-10, MC-10B, MC-12, or MC-12B) relative to BOBCalixC6 in the FPEX I process solvent was determined. Samples were prepared using each of the dialkyloxycalix[4]arenebenzocrown-6 compounds and contacted with 1.5 M HNO3. […]
measured endpoint: Cesium distribution ratio as a function of contact time

Task: Look up Cesium distribution ratio as a function of contact time: CCCCCCCCCCCCOc1c2cccc1Cc1cccc3c1OCCOCCOc1ccccc1OCCOCCOc1c(cccc1Cc1cccc(c1OCCCCCCCCCCCC)C3)C2 [MC-12]
Result: 3.0

Task: Lookup CCCCCCCCOc1c2cccc1Cc1cccc3c1OCCOCCOc1ccccc1OCCOCCOc1c(cccc1Cc1cccc(c1OCCCCCCCC)C3)C2 [MC-8]
Result: 4.2

Task: Lookup CC(C)CCCC(C)CCOc1c2cccc1Cc1cccc3c1OCCOCCOc1ccccc1OCCOCCOc1c(cccc1Cc1cccc(c1OCCC(C)CCCC(C)C)C3)C2 (stereo not drawn) [MC-10B]
Result: 3.7

Task: Lookup CCCCC(CCCC)CCCOc1c2cccc1Cc1cccc3c1OCCOCCOc1ccccc1OCCOCCOc1c(cccc1Cc1cccc(c1OCCCC(CCCC)CCCC)C3)C2 [MC-12B]
Result: 3.3

[I] CCCCCCCCCCOc1c2cccc1Cc1cccc3c1OCCOCCOc1ccccc1OCCOCCOc1c(cccc1Cc1cccc(c1OCCCCCCCCCC)C3)C2 [MC-10]
[II] CCCCC(CC)COc1c2cccc1Cc1cccc3c1OCCOCCOc1ccccc1OCCOCCOc1c(cccc1Cc1cccc(c1OC[C@H](CC)CCCC)C3)C2 (stereo partly drawn) [MC-8B]
Task: Determine, for I and II , which has the greater value of Cesium distribution ratio as a function of contact time. Select an item and report its label.
Result: I

Just for reference, patent US8158088B2 is where these values come from.
